Tested on: Saccharomyces cerevisiae
Test: protein stability index of tFT-peptide fusion (C-terminal peptide) (PSI (0-1 scale)); higher = more stable (slower turnover);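 further: PSI is a weighted mean of sequencing reads over stability bins, variants kept only with over 10 reads, mCherry proximal and sfGFP distal, peptide attached via GGGS linker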
Details: genetic background: wild type; temperature: 30 C
Decision: protein stability index compared against 0.7; not below it gives class 1, below it gives class 0.

| Entry Sequence | Label Class |
| --- | --- |
| TNFGALNFDYAC | class 1 |
| LLPSPSPASSPS | class 1 |
| WMSVCCRSALVD | class 0 |
| SPPSSFPVFTLL | class 1 |
| PFPRCRLIFFFM | class 0 |
| HLLSPPLPPSPA | class 1 |
| VGGRGLVWVWGG | class 0 |
| VELFSYGHHCRV | class 0 |
| GGFKGGKWVVEG | class 0 |

====

System: Saccharomyces cerevisiae
Assay: protein stability index of tFT-peptide fusion (C-terminal peptide) (PSI (0-1 scale)); higher = more stable (slower turnover)
Settings: genetic background: doa10 deletion; temperature: 30 C

| Entry Sequence | protein stability index |
| --- | --- |
| CVSFFRCLFLIV | 0.193 |
| VYWRGLHLQRLL | 0.26 |
| VVWCLLARVLLV | 0.158 |
| TVRLPLILPCVL | 0.414 |
| DPKQVRIQSSWL | 0.627 |
| MFFSWVLSISLT | 0.024 |
| FMRKLVVLVVLG | 0.192 |
| VWICPTLFLLFS | 0.457 |
| RCCWWNAQAVWR | 0.655 |
| FWILLRVLIFVL | 0.182 |
| CCVFFLLCLSLF | 0.353 |
| LPTVSRPGALIC | 0.144 |
| RLIAVAGVVVVA | 0.4 |
| SRARIRLPRILS | 0.208 |
| VAVFFFCRVFFL | 0.186 |
| WGRAADRRRRLG | 0.152 |
| LEGLLIRVYITF | 0.151 |
| CRGLSWRMITCL | 0.125 |
| VLILFFLVVFYV | 0.254 |
| RSLRVLLPLYFR | 0.66 |
| VLLFGLAFFFSF | 0.222 |
| SCFDRQIFVPVC | 0.274 |
| IVRSLFGYLCVV | 0.427 |
| LSLPTPLPSPPA | 0.449 |
| VFLRRFGVPWVF | 0.198 |
| LVLLIQKFLTDK | 0.59 |
| CRLRYSILWFRL | 0.201 |
| VFLSCFFVSWVV | 0.202 |
| GPHATYLYLVLA | 0.158 |
| WFIFTITSVAGL | 0.0226 |
| INKKKKMIITKI | 0.227 |
| CRRQLKVLKSMS | 0.148 |
| PTYSCSIKIQAH | 0.339 |
| ALSGLARFIVCH | 0.205 |
| NVWCWGASCFFC | 0.337 |
| CSFHFSLFFLRV | 0.485 |
| AFYLCLYFMPVS | 0.358 |
| RDASLLFHFFVC | 0.0833 |
| CVCLWCFLVWAR | 0.259 |
| LVYLVCAYSECE | 0.242 |
| DLLKAILKIKSL | 0.104 |

====

Test system: Saccharomyces cerevisiae
Assay: protein stability index of tFT-peptide fusion (C-terminal peptide) (PSI (0-1 scale)); higher = more stable (slower turnover)
Settings: genetic background: cdc34-1; temperature: 37 C
Decision: protein stability index compared against 0.6; not below it gives 1, below it gives 0.

| Entry Sequence | Label Class |
| --- | --- |
| STLPACNCLKLL | 1 |
| HPPPPPPPPSLS | 1 |
| FRCRFLLPFYSV | 1 |
| LFFFSFSFLFFL | 0 |
| CSFHFSLFFLRV | 0 |
| VAFLYCHFFYCI | 0 |
| CGGLFDVALGVG | 0 |
| FAVTRVHLACWG | 0 |
| WFIFTITSVAGL | 0 |
| VPIIVVVYVFVT | 0 |
| LFHSIPRLLLLK | 0 |
| CGSFWVNVLCAV | 0 |
| LVSVLLLFWFLF | 0 |
| PFARIIDILLVI | 0 |
| RGAVLLPSLWVV | 1 |
| YVVYLQVCWMRS | 0 |
| FVRCFWPFVFVF | 0 |
| PTYSCSIKIQAH | 0 |
| IKRLKEVARHVS | 1 |
| LHIHGAGIVCAG | 0 |
| PSPHRAPPGGHP | 1 |
| VFLYVYAVWFLV | 0 |
| GVYRLCLLLLVY | 0 |
| SFLRVRSLISCS | 0 |
| LFSFFVFFFLLD | 0 |
| ACSRKPIWVTWL | 1 |
| NTNITHHSVKLR | 1 |
| PCVCFIILGMLS | 0 |
| WDEVVAIVVCPV | 0 |
| ARWRVGLWRGAS | 1 |
| TKKGQTRPSRTD | 1 |
| FGGFYGRRVLII | 1 |
| SFVCFSYYIVNI | 0 |
| LSACYSRYVFVS | 0 |
| GWSRRFFCLFIV | 0 |
| TNEWMDVKVFCY | 1 |
| LCVVFCIRTYRV | 0 |
| SPTIFLPLFLTS | 0 |
| WISDRCPSVLCY | 0 |
